Taken from PubChem BioAssay AID1159580.

# experimental.details: chemical genetic growth profiling, strain panel (AID 1159580);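 note: tested at 20 µM; growth read once vehicle control cultures reached saturation at 30 °C; 1 = growth at the plate median or of vehicle wells; lower values mean less growth of the strain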
# run.parameters: S. cerevisiae deletion strains, growth OD, locus YLR330W, strain CHS5
Out of some 5,500 compounds screened, about 2,000 (36%) were called active. Roughly 18% stayed inconclusive and do not appear here. Cut-off read from the data, not from the text of the source: active = normalized growth mostly below about 0.91 (no sharp cut-off); inconclusive = no clear call, values can overlap the other calls; inactive = mostly above about 0.92. Some of the results follow.
Permitted responses: yes (1) = active, no (0) = inactive

1. COc1nc(NC(C)C)nc(NC(C)C)n1    no (0)

Incoming: For this compound, state the assay outcome: CO[C@H]1[C@H](O)[C@@H](O[C@H]2CC[C@]3(C=O)C4CC[C@]5(C)[C@@H](C6=CC(=O)OC6)CC[C@]5(O)C4CC[C@@H]3C2)O[C@@H](C)[C@@H]1O (some centres undefined)
Outgoing: no (0)

Incoming: Next compound up: CSc1nc(NC(C)C)nc(NC(C)C)n1
Outgoing: no (0)

Incoming: Next compound up: CC1(C)S[C@@H]2[C@H](NC(=O)C(C(=O)O)c3ccccc3)C(=O)N2[C@H]1C(=O)O (some centres undefined)
Outgoing: no (0)

Incoming: Next compound up: C[C@@H]1O[C@@H](O[C@H]2CC[C@]3(C=O)C4CC[C@]5(C)[C@@H](C6=CC(=O)OC6)CC[C@]5(O)C4CC[C@]3(O)C2)[C@H](O)[C@H](O)[C@H]1O (some centres undefined)
Outgoing: no (0)
